procedure details: JC-1 mitochondrial signal, unstimulated HepG2 cells – cell-based, JC-1 fluorescence, 24 h, 100 nL compound, profiling panel (AID 1167); note: test concentration not given here
measurement parameters: HepG2 mitochondrial potential, higher = more signal
value kind: z-score
Lab note: record the figure alone, no unit after it.

compound=C#CCN1[C@@H](Cc2ccccc2)C(=O)O[C@H](Cc2ccccc2)[C@@H]1/C=C/C1CC1 value_kind=z-score value=2.46
compound="NC(=O)N1C(=O)C2C(C1=O)C1C=C(CCCO)C2C(c2ccc(CN3CCCC3)cc2)N1Cc1cc2c(cc1Br)OCO2 (stereo unspecified)" value_kind=z-score value=-0.595

IN: Look up z-score for this compound: "O=C1c2ccccc2[C@@]2(Cc3ccccc3N(Cc3ccccc3)C2=O)[C@H](c2ccc(CO)cc2)N1Cc1ccccc1Cl"
OUT: 1.1
